TESTED TARGET: Amyloid-beta precursor protein (Homo sapiens)
ASSAY NOTES: Inhibition of HFIP-pretreated amyloid beta (1 to 42) (unknown origin) aggregation in PBS buffer at pH 7.4 at 40 uM incubated for 48 hrs by thioflavin-T fluorescence assay
Active and inactive are the calls of the source. No cut-off for these calls is given here. Peptide text beside a SMILES is read from it.
Outcomes: active, inactive

COMPOUND	TESTED TARGET	LABEL
CC(C)C[C@H](N)C(=O)N[C@H](C(=O)N[C@H]1Cc2ccc(cc2)OC/C=C/C[C@@H](C(=O)O)NC(=O)[C@H](Cc2ccccc2)NC1=O)C(C)C	Amyloid-beta precursor protein (Homo sapiens)	inactive
CC(C)C[C@H](N)C(=O)N[C@H]1Cc2ccc(cc2)OC/C=C/C[C@@H](C(=O)N[C@@H](CC(=O)O)C(=O)O)NC(=O)[C@H](Cc2ccccc2)NC1=O	Amyloid-beta precursor protein (Homo sapiens)	active
CC(C)C[C@H](N)C(=O)N1CCC[C@H]1C(=O)N[C@@H](Cc1ccccc1)C(=O)N[C@@H](Cc1ccccc1)C(=O)O (H-LPFF-OH)	Amyloid-beta precursor protein (Homo sapiens)	inactive
COC(=O)[C@@H]1C/C=C/COc2ccc(cc2)C[C@H](NC(=O)OC(C)(C)C)C(=O)N[C@@H](CC(C)C)C(=O)N1	Amyloid-beta precursor protein (Homo sapiens)	inactive
O=C(O)C[C@H](NC(=O)[C@@H]1C/C=C/COc2ccc(cc2)C[C@H](NC(=O)[C@@H]2CCCN2)C(=O)N[C@@H](Cc2ccccc2)C(=O)N1)C(=O)O	Amyloid-beta precursor protein (Homo sapiens)	active
C[C@H](NC(=O)[C@@H]1C/C=C/COc2ccc(cc2)C[C@H](NC(=O)[C@@H]2CCCN2)C(=O)N[C@@H](Cc2ccccc2)C(=O)N1)C(=O)O	Amyloid-beta precursor protein (Homo sapiens)	active
CC(C)[C@@H]1NC(=O)[C@@H](N)C/C=C/COc2ccc(cc2)C[C@@H](C(=O)N[C@@H](Cc2ccccc2)C(=O)N[C@@H](C)C(=O)O)NC1=O	Amyloid-beta precursor protein (Homo sapiens)	inactive

// data source = ChEMBL document CHEMBL4725385
